Source of measurements: ChEMBL document CHEMBL3045592

Test system: Echinochloa crus-galli
Test: Post-emergence herbicidal activity against Echinochloa crus-galli (barnyard grass) assessed as growth inhibition at 1500 ai g/ha after 20 days by green house test
Type: functional
Quantity measured: growth inhibition (GI)

Solved cases (6 shown):
COP(=O)(OC)C(C)OC(=O)COc1cccc(C)c1C (stereo not drawn): 50%
COP(=O)(OC)C(OC(=O)COc1ccc(C(F)(F)F)cc1)c1cccc([N+](=O)[O-])c1 (stereo not drawn): <=50%
COP(=O)(OC)C(OC(=O)COc1ccccc1[N+](=O)[O-])c1cccc([N+](=O)[O-])c1 (stereo not drawn): <=50%
COP(=O)(OC)C(C)OC(=O)COc1ccc(Cl)cc1C (stereo not drawn): 50%
COP(=O)(OC)C(OC(=O)COc1ccc(C(F)(F)F)cc1)c1ccccc1 (stereo not drawn): <=50%
COP(=O)(OC)C(OC(=O)COc1cccc(Cl)c1Cl)c1cccc([N+](=O)[O-])c1 (stereo not drawn): <=50%

Look up growth inhibition (GI): `COP(=O)(COC(=O)COc1cccc(C(F)(F)F)c1)OC`
<=50%

Look up growth inhibition (GI): COP(=O)(OC)C(OC(=O)COc1ccc(F)cc1Cl)c1ccccc1O (stereo not drawn)
50%

Look up growth inhibition (GI): COP(=O)(OC)C(C)OC(=O)COc1ccccc1F (stereo not drawn)
<=50%

Look up growth inhibition (GI): COP(=O)(OC)C(C)OC(=O)COc1ccc(C)cc1 (stereo not drawn)
50%

Look up growth inhibition (GI): COP(=O)(OC)C(OC(=O)COc1ccc(Cl)c(C)c1)c1cccc([N+](=O)[O-])c1 (stereo not drawn)
<=50%

Look up growth inhibition (GI): COP(=O)(OC)C(OC(=O)COc1cccc(C)c1)c1ccccc1 (stereo not drawn)
<=50%

Look up growth inhibition (GI): COP(=O)(OC)C(OC(=O)COc1ccc(Cl)cc1Cl)c1cccc(Br)c1 (stereo not drawn)
50%

Look up growth inhibition (GI): COP(=O)(OC)C(OC(=O)COc1ccc(Cl)cc1Cl)c1ccccc1 (stereo not drawn)
<=50%

Look up growth inhibition (GI): COP(=O)(OC)C(C)OC(=O)COc1ccc(Cl)cc1 (stereo not drawn)
<=50%

Look up growth inhibition (GI): COP(=O)(OC)C(C)OC(=O)COc1cc(F)cc(F)c1 (stereo not drawn)
<=50%

Look up growth inhibition (GI): COP(=O)(OC)C(OC(=O)COc1ccc(C(F)(F)F)cc1[N+](=O)[O-])c1cccc([N+](=O)[O-])c1 (stereo not drawn)
<=50%

Look up growth inhibition (GI): COP(=O)(OC)C(OC(=O)COc1ccc(Cl)cc1)c1ccccc1O (stereo not drawn)
<=50%
